Cited source: patent US9802997B2

- studySystem: HLA-A*02:01 (Homo sapiens, UniProt P04439, D140Y/D185E/D98H/E176V/E277Q/G131W/G231S/I119V/I121R/I166T/I218V/L300P/L318F/N151K/N90K/P208A/P217A/Q86G/Q94H/R138H/R169H/T345S)
- testDescription: MHC binding assay (UV-ligand exchange, beta2m ELISA)
- conditionsUsed: binding to HLA-A*02:01, β2m ELISA
observable: Peptide exchange (MHC class I binding score, peptide exchange yield)

Study these solved cases before continuing.
1. 91 (LLPSIFLMV; listed as Homo sapiens) [compound 91]: ++ (≧20% = ++)
2. 121 (ALYVQAPTV; listed as Homo sapiens) [compound 121]: ++ (≧20% = ++)
3. 38 (VLQQESNFL; listed as Homo sapiens) [compound 38]: ++ (≧20% = ++)
4. 57 (TLYPGRFDYV; listed as Homo sapiens) [compound 57]: ++ (≧20% = ++)
5. 131 (SLYPHFTLL; listed as Homo sapiens) [compound 131]: +++ (≧50 = +++)

Supply Peptide exchange (MHC class I binding score, peptide exchange yield) value. Item: 70 (GLTEKTVLV; listed as Homo sapiens) [compound 70] ++ (≧20% = ++)

Supply Peptide exchange (MHC class I binding score, peptide exchange yield) value. Item: 278 (VLEDKVLSV; listed as Homo sapiens) [compound 278] +++ (≧50 = +++)

Supply Peptide exchange (MHC class I binding score, peptide exchange yield) value. Item: 89 (SLAETIFIV; listed as Homo sapiens) [compound 89] +++ (≧50 = +++)

Supply Peptide exchange (MHC class I binding score, peptide exchange yield) value. Item: 12 (RLLDPKTIFL; listed as Homo sapiens) [compound 12] +++ (≧50 = +++)
